Tested on: S. aureus ATCC 29213 (HAV#001)
EXPERIMENT_NOTES: MIC by broth microdilution (CLSI)
Format: cell-based
EXPERIMENTAL_CONTEXT: Staphylococcus aureus, ATCC29213, 24 h, HAV#001, ATCC 29213; CaMHB, 24 h incubation; read-out: MIC S. aureus ATCC 29213
Counter-ions that a name gives are not always drawn.
MEASURED_PROPERTY: MIC

Guide cases for MIC, answers given:
Return MIC measured with S. aureus ATCC 29213 (HAV#001) given this compound: CC(C)C[C@@H]1CCO[C@@H]2[C@H](CN[C@@H]2C(=O)N[C@H]2[C@H]3OC(SC/C=C/CC2(C)C)[C@H](O)C(O)C3O)C1 (single isomer, unassigned) [FSA1504066A, formate salt] ≤ 0.06 µg/mL

Provide the documented MIC with S. aureus ATCC 29213 (HAV#001) as the system for CC(C)C[C@@H]1CCO[C@@H]2[C@H](CN[C@@H]2C(=O)N[C@H]2[C@H]3O[C@H](SCCC/C=C\[C@H]2C)[C@H](O)[C@@H](O)[C@H]3O)C1 [FSA1609096, formate salt] ≤ 0.06 µg/mL

New cases:
Please state recorded MIC (tested on S. aureus ATCC 29213 (HAV#001)) of CC(C)C[C@@H]1CCO[C@@H]2[C@H](CN[C@@H]2C(=O)N[C@H]2C3OC(SCC/C=C/[C@@H]2C)C(O)C(O)C3O)C1 (single isomer, unassigned) [FSA1507068, formate salt] ≤ 0.06 µg/mL

* * *

Tested on: S. pyogenes HAV#033, c-ermB
EXPERIMENT_NOTES: MIC by broth microdilution (CLSI)
Format: cell-based
EXPERIMENTAL_CONTEXT: Streptococcus pyogenes, 24 h, read-out: MIC S. pyogenes HAV#033, c-ermB
Where a name gives a salt, the structure may show the parent alone.
MEASURED_PROPERTY: MIC (mg/L)
Just the number in mg/L, nothing appended.

Fill blank: measured MIC of the compound CC(C)C[C@@H]1CCO[C@@H]2[C@@H](C1)CN(C)[C@@H]2C(=O)N[C@H]1C2OC(SCC/C=C\[C@H]1C)C(O)C(O)C2O (single isomer, unassigned) [FSA1508001, formate] is ____. 0.25

Report MIC for CC(C)C[C@@H]1CCO[C@@H]2[C@H](CN[C@@H]2C(=O)N[C@@H]2C/C=C\CCS[C@H]3O[C@H]2[C@H](O)[C@H](O)[C@H]3O)C1 [FSA1507013, formate] please. 0.5

Can you share its MIC? I mean this compound: CC(C)C[C@@H]1CCO[C@@H]2[C@@H](C1)CN(C)[C@@H]2C(=O)N[C@@H]1C/C=C\CCS[C@H]2O[C@H]1[C@H](O)[C@H](O)[C@H]2O [FSA1508003, formate] 2

Further cases:
Recorded MIC of CC(C)C[C@@H]1CCO[C@@H]2[C@H](CN[C@@H]2C(=O)N[C@H]2C3OC(SCC/C=C\[C@H]2C)C(O)C(O)C3O)C1 (single isomer, unassigned) [FSA1507066, formate] , please. 0.125

* * *

Test system: E. coli ATCC 25922 (HAV#006)
EXPERIMENT_NOTES: MIC by broth microdilution (CLSI)
Format: cell-based
EXPERIMENTAL_CONTEXT: Escherichia coli, ATCC25922, 24 h, read-out: MIC E. coli ATCC 25922
Where a name gives a salt, the structure may show the parent alone.
Overview of reported MIC across a group of molecules:
Respond numerically; units are µg/mL and should not be typed.

Known MIC results, listed for orientation:
Could you tell me which MIC is on file for CC(C)C[C@@H]1CCO[C@@H]2[C@H](CN[C@@H]2C(=O)N[C@@H]2C/C=C\C[C@@H](CNC(=O)c3ccc(F)cc3)S[C@H]3O[C@H]2[C@H](O)[C@H](O)[C@H]3O)C1 [FSA1608088, formate salt] ? 8

// returns reported MIC for input CC(C)C[C@@H]1CCO[C@@H]2[C@@H](C1)CN(C)[C@@H]2C(=O)N[C@@H]1C/C=C\CCS[C@H]2O[C@H]1[C@H](O)[C@H](O)[C@H]2O [FSA1508003, formate] 4

Would you kindly share the measured MIC for CC(C)C[C@@H]1CCO[C@@H]2[C@@H](C1)CN(C)[C@@H]2C(=O)N[C@H]1C2OC(SCC/C=C\[C@H]1C)C(O)C(O)C2O (single isomer, unassigned) [FSA1508001, formate] ? 8

Requested read-out: MIC. Entry: CC(C)C[C@@H]1CCO[C@@H]2[C@H](CN[C@@H]2C(=O)N[C@@H]2C/C=C\C[C@@H](CN)S[C@H]3O[C@H]2[C@H](O)[C@H](O)[C@H]3O)C1 [FSA1608083, hydrochloride salt] 16

What MIC value was documented for this molecule, CC(C)C[C@@H]1CCO[C@@H]2[C@H](CN[C@@H]2C(=O)N[C@@H]2C/C=C\C[C@@H](C(F)F)S[C@H]3O[C@H]2[C@H](O)[C@H](O)[C@H]3O)C1 [FSA1607044, formate salt] ? 8

Please look at the following molecule next.
I have this molecule here, CC(C)C[C@@H]1CCO[C@@H]2[C@H](CN[C@@H]2C(=O)N[C@H]2[C@H]3O[C@H](S[C@H](CF)C/C=C\[C@H]2C)[C@H](O)[C@@H](O)[C@H]3O)C1 [FSA1609034, formate salt] , and I need its recorded MIC. 1
